- system: MBP-FoxP3dN (Mus musculus, UniProt Q99JB6 188-423)
- Sequence: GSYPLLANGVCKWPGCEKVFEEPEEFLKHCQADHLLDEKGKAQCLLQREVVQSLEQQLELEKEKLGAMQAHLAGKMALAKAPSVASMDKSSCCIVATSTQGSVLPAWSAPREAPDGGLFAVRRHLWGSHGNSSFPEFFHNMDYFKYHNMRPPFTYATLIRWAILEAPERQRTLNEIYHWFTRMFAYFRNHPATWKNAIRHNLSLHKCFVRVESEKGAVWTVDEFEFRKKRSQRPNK
- test-method-notes: PD-seq (MBP pull-down with sequencing); 20 mM Tris-HCl pH 7.5, 100 mM NaCl, 1.5 mM MgCl2, 0.4 uM protein, 0.1 uM dsDNA library, 30 min, room temperature, amylose pull-down; high values mean tight binding
- conditions: protein: recombinant; tags: His6-MBP; chain copies: 2; dsDNA, one strand shown
In all, about 16,000 sequences were measured (“rpm ratio (pull-down/input)”: median about 0.5, highest 2% from about 5.5 on). The entries come from a sample that favours the highest values as a whole.
Exercise: state measured binding signal for each of the sequences provided.

{"columns": ["sequence-text", "binding signal"],
 "data": [
  ["GATGATTGTTCTCCCAGCTGATGAATTTCCATTTTCGAGTAAACAAATTTTCCTAATCTTTCTGTTCAAGCGCCATCTAC", "0.295 RPM ratio (pull-down/input)"]
]}

Please supply binding signal for each of the following items, keeping them in order.
1. GATGATTGTTCTCCCAGCTGATGAATTATTCTGCTCGAGTAAACAAATTTTCCTAATCTTTCTGTTCAAGCGCCATCTAC
2. GATGATTGTTCTCCCAGCTGATGAATTACGAAAGTCGAGTAAACAAATTTTCCTAATCTTTCTGTTCAAGCGCCATCTAC
3. GATGATTGTTCTCCCAGCTGATGAATTGCGACCGTCGAGTAAACAAATTTTCCTAATCTTTCTGTTCAAGCGCCATCTAC

### Response
1: 0.328 RPM ratio (pull-down/input); 2: 0.214 RPM ratio (pull-down/input); 3: 0.963 RPM ratio (pull-down/input)

Please supply binding signal for each of the following items, keeping them in order.
1. GATGATTGTTCTCCCAGCTGATGAATTGGTGAGGTCGAGTAAACAAATTTTCCTAATCTTTCTGTTCAAGCGCCATCTAC
2. GATGATTGTTCTCCCAGCTGATGAATTTTGCGGATCGAGTAAACAAATTTTCCTAATCTTTCTGTTCAAGCGCCATCTAC

### Response
1: 0.385 RPM ratio (pull-down/input); 2: 0.597 RPM ratio (pull-down/input)

---

- system: MBP-FoxP3dN (Mus musculus, UniProt Q99JB6 188-423)
- Sequence: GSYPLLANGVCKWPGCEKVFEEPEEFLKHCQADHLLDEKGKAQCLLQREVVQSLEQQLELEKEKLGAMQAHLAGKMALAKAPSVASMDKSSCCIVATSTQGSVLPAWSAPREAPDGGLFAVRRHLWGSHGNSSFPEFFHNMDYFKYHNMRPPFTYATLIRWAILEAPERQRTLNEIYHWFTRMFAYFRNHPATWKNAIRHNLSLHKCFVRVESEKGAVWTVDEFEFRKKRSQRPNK
- test-method-notes: PD-seq (MBP pull-down with sequencing); 20 mM Tris-HCl pH 7.5, 100 mM NaCl, 1.5 mM MgCl2, 0.4 uM protein, 0.1 uM dsDNA library, 30 min, room temperature, amylose pull-down; high values mean tight binding
- conditions: protein: recombinant; tags: His6-MBP; chain copies: 2; dsDNA, one strand shown
Whole data set: some 16,000 sequences, median “rpm ratio (pull-down/input)” near 0.5, cut for the highest 2% near 5.5. Only a selection was taken, and the highest values are over-represented in it overall.
measure: binding signal

Below: 10 sequences and their reported binding signal.
{"columns": ["sequence-text", "binding signal"],
 "data": [
  ["GATGATTGTTCTCCCAGCTGATGAATTGGTTTGCTCGAGTAAACAAATTTTCCTAATCTTTCTGTTCAAGCGCCATCTAC", "4.24 RPM ratio (pull-down/input)"],
  ["GATGATTGTTCTCCCAGCTGATGAATTGCTTTGCTCGAGTAAACAAATTTTCCTAATCTTTCTGTTCAAGCGCCATCTAC", "1.22 RPM ratio (pull-down/input)"],
  ["GATGATTGTTCTCCCAGCTGATGAATTACCCATGTCGAGTAAACAAATTTTCCTAATCTTTCTGTTCAAGCGCCATCTAC", "0.294 RPM ratio (pull-down/input)"],
  ["GATGATTGTTCTCCCAGCTGATGAATTACGCATTTCGAGTAAACAAATTTTCCTAATCTTTCTGTTCAAGCGCCATCTAC", "6.65 RPM ratio (pull-down/input)"],
  ["GATGATTGTTCTCCCAGCTGATGAATTTTCTTGCTCGAGTAAACAAATTTTCCTAATCTTTCTGTTCAAGCGCCATCTAC", "0.298 RPM ratio (pull-down/input)"],
  ["GATGATTGTTCTCCCAGCTGATGAATTATGAGAGTCGAGTAAACAAATTTTCCTAATCTTTCTGTTCAAGCGCCATCTAC", "0.397 RPM ratio (pull-down/input)"],
  ["GATGATTGTTCTCCCAGCTGATGAATTACGCATGTCGAGTAAACAAATTTTCCTAATCTTTCTGTTCAAGCGCCATCTAC", "6.15 RPM ratio (pull-down/input)"],
  ["GATGATTGTTCTCCCAGCTGATGAATTGCTTTTCTCGAGTAAACAAATTTTCCTAATCTTTCTGTTCAAGCGCCATCTAC", "1.42 RPM ratio (pull-down/input)"],
  ["GATGATTGTTCTCCCAGCTGATGAATTCAAGTGTTCGAGTAAACAAATTTTCCTAATCTTTCTGTTCAAGCGCCATCTAC", "0.65 RPM ratio (pull-down/input)"],
  ["GATGATTGTTCTCCCAGCTGATGAATTTCGTCCCTCGAGTAAACAAATTTTCCTAATCTTTCTGTTCAAGCGCCATCTAC", "0.799 RPM ratio (pull-down/input)"]
]}

Please supply binding signal for each of the following items, keeping them in order.
1. GATGATTGTTCTCCCAGCTGATGAATTCCGCAGATCGAGTAAACAAATTTTCCTAATCTTTCTGTTCAAGCGCCATCTAC
2. GATGATTGTTCTCCCAGCTGATGAATTGTCTTGCTCGAGTAAACAAATTTTCCTAATCTTTCTGTTCAAGCGCCATCTAC
3. GATGATTGTTCTCCCAGCTGATGAATTTGCTTGCTCGAGTAAACAAATTTTCCTAATCTTTCTGTTCAAGCGCCATCTAC

### Response
["0.352 RPM ratio (pull-down/input)", "0.461 RPM ratio (pull-down/input)", "6.22 RPM ratio (pull-down/input)"]

Please supply binding signal for each of the following items, keeping them in order.
1. GATGATTGTTCTCCCAGCTGATGAATTGAAGTCTTCGAGTAAACAAATTTTCCTAATCTTTCTGTTCAAGCGCCATCTAC
2. GATGATTGTTCTCCCAGCTGATGAATTCCCTGTTTCGAGTAAACAAATTTTCCTAATCTTTCTGTTCAAGCGCCATCTAC

### Response
1. 0.312 RPM ratio (pull-down/input)
2. 0.346 RPM ratio (pull-down/input)
